- System name: Dopamine beta hydroxylase (Homo sapiens)
- Construct: 125 μl of plasma; tissue Instituto Português do Sangue Transplantação; host or cells: human plasma from healthy donors
- Sequence (P09172 40-617 limits assumed): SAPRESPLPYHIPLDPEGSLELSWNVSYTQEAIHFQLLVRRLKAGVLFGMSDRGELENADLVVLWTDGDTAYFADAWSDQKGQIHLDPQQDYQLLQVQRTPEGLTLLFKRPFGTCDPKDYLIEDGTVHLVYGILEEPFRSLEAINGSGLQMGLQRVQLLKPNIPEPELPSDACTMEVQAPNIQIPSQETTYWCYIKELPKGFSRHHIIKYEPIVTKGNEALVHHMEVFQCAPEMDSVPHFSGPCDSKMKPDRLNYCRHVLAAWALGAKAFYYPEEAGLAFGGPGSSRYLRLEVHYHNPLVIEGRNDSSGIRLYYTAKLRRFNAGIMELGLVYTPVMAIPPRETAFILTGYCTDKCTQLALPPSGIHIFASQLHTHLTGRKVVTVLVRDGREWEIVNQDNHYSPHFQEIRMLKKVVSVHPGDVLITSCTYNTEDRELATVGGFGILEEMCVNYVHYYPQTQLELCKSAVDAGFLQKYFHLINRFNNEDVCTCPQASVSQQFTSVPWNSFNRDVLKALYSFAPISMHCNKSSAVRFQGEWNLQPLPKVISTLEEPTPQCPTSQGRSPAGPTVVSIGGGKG
- Test description: Dopamine beta hydroxylase activity in human plasma
- Type: biochemical
- Run parameters: inhibitor 0.1 μM
Readings of Plasma (0.1 μM), activity in % of control for the listed molecules
Measurement name: Plasma (0.1 μM), activity in % of control

Molecule: Cn1c(CC(=O)N2CCOCC2)c2n(c1=S)C[C@H](c1c(F)ccc(F)c1F)C2
Result: 78.6 % of control

Molecule: Cl.Fc1ccc(F)c([C@H]2Cc3c(CCNC[C@@H]4CCCO4)[nH]c(=S)n3C2)c1F
Result: 67.0 % of control

Molecule: Cn1c(CCN[C@@H]2CCOC2)c2n(c1=S)C[C@@]1(c3cc(Br)ccc3F)C[C@@H]21
Result: 53.3 % of control

Molecule: Cn1c(CC(=O)N[C@@H]2CCCOC2)c2n(c1=S)C[C@@]1(c3cc(Br)ccc3F)C[C@@H]21
Result: 3.4 % of control

Molecule: O=C(Cc1[nH]c(=S)n2c1C[C@H](c1c(F)c(F)cc(F)c1F)C2)N1CCC(O)CC1
Result: 69.2 % of control

Molecule: O=C(Cc1[nH]c(=S)n2c1C[C@@H](c1c(F)ccc(Br)c1F)C2)NC1CCC1
Result: 20.3 % of control

Molecule: Cl.O=C(Cc1[nH]c(=S)n2c1C[C@@H](c1c(F)ccc(Cl)c1F)C2)NCCc1ccccn1
Result: 33.9 % of control

Molecule: CCCCN(C)C(=O)Cc1[nH]c(=S)n2c1C[C@@H](c1c(F)ccc(Br)c1F)C2
Result: 37.5 % of control

Molecule: O=C(Cc1[nH]c(=S)n2c1C[C@H](c1c(F)c(F)cc(F)c1F)C2)NC1COC1
Result: 65.7 % of control

Molecule: Cl.Cn1c(CCNC2CCCC2)c2n(c1=S)C[C@@]1(c3cc(Br)ccc3F)C[C@@H]21
Result: 32.5 % of control

Molecule: O=C(Cc1[nH]c(=S)n2c1C[C@@H](c1cc(Br)ccc1F)C2)NC1CCCC1
Result: 70.3 % of control

Molecule: CN(C(=O)Cc1c2n(c(=S)n1C)C[C@@]1(c3c(F)ccc(Cl)c3F)C[C@@H]21)C1CCOCC1
Result: 11.5 % of control

Molecule: O=C(Cc1[nH]c(=S)n2c1[C@@H]1C[C@]1(c1c(F)ccc(Cl)c1F)C2)NCc1cccnc1
Result: 20.2 % of control

Molecule: Cn1c(CCC(=O)N2CC3C(C2)C3(C)C)c2n(c1=S)C[C@@H](c1c(F)c(F)cc(F)c1F)C2 (stereo partly shown)
Result: 16.5 % of control

Molecule: COCCNC(=O)Cc1[nH]c(=S)n2c1C[C@H](c1c(F)c(F)cc(F)c1F)C2
Result: 75.9 % of control

Molecule: O=C(CCc1[nH]c(=S)n2c1C[C@H](c1c(F)c(F)cc(F)c1F)C2)N1CCCCC1
Result: 30.2 % of control

Molecule: Fc1cc(F)c(F)c([C@H]2Cc3c(CCc4cccnc4)[nH]c(=S)n3C2)c1F
Result: 46 % of control

Molecule: Fc1cc(F)c(F)c([C@H]2Cc3c(CCc4ccncc4)[nH]c(=S)n3C2)c1F
Result: 69.1 % of control

Molecule: O=C(Cc1[nH]c(=S)n2c1C[C@H](c1c(F)c(F)cc(F)c1F)C2)N[C@@H]1CCOC1
Result: 1.4 % of control

Molecule: O=C(O)C(Cc1[nH]c(=S)n2c1C[C@H](c1c(F)c(F)cc(F)c1F)C2)C(=O)O
Result: 13.3 % of control

Molecule: Cn1c(CC(=O)N[C@@H]2CCOC2)c2n(c1=S)C[C@@H](c1c(F)cccc1F)C2
Result: 62.9 % of control

Molecule: O=C(Cc1[nH]c(=S)n2c1C[C@@H](c1c(F)ccc(Br)c1F)C2)NC1CCCC1=O (stereo partly shown)
Result: 10.4 % of control

Molecule: Cn1c(CC(=O)NC2CCOCC2)c2n(c1=S)C[C@H](c1c(F)ccc(F)c1F)C2
Result: 25.4 % of control

Molecule: Cn1c(CC(=O)NC2CC2)c2n(c1=S)C[C@@]1(c3cc(Br)ccc3F)C[C@@H]21
Result: 15.1 % of control

Molecule: Cn1c(CC(=O)N[C@@H]2CCOC2)c2n(c1=S)C[C@@]1(c3cc(Cl)ccc3F)C[C@@H]21
Result: 29.8 % of control

Molecule: Cn1c(CC(=O)N[C@@H]2CCNC2=O)c2n(c1=S)C[C@H](c1c(F)ccc(Br)c1F)C2
Result: 16.5 % of control

Molecule: O=C(Cc1[nH]c(=S)n2c1C[C@H](c1c(F)ccc(Br)c1F)C2)NC1CCOC1=O (stereo partly shown)
Result: 45.1 % of control

Molecule: O=C(Cc1[nH]c(=S)n2c1C[C@H](c1c(F)c(F)cc(F)c1F)C2)NC1CCS(=O)(=O)CC1
Result: 10.3 % of control

Molecule: O=C(Cc1[nH]c(=S)n2c1C[C@@H](c1c(F)ccc(Br)c1F)C2)NCC1CC1
Result: 24.0 % of control

Molecule: Cn1c(CC(=O)NCc2cnccn2)c2n(c1=S)C[C@H](c1c(F)ccc(Cl)c1F)C2
Result: 9.4 % of control

Molecule: CC(C)NC(=O)Cc1c2n(c(=S)n1C)C[C@@]1(c3cc(Cl)ccc3F)C[C@@H]21
Result: 34.7 % of control
